# tested.on: wild-type CB2 (WT) (Homo sapiens)
# assay.overview: Competition binding assay, displacement of [3H]-CP-55940, membranes of CHO cells
# conditions: Ki value at CB2 with 150 mM NaCl, with 150 mM NaCl
parameter.measured: Ki (µM)
Note: unit µM is implicit; provide only the numeric part.

Request the reported Ki associated with N=C(N)NC(=O)c1nc(Cl)c(N)nc1N [amiloride]
310

---

# tested.on: wild-type CB2 (WT) (Homo sapiens, UniProt P34972)
# Sequence (P34972 whole entry): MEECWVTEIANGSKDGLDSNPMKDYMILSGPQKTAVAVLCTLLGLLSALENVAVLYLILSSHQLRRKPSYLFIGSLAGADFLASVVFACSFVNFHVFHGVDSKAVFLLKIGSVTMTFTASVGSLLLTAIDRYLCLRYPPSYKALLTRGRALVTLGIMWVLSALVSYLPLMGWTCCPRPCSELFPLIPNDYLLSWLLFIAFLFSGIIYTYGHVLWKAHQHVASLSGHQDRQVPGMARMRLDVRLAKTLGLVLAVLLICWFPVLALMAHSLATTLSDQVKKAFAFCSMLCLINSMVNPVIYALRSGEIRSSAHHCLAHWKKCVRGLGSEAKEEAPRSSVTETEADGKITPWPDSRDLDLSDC
# assay.overview: Competition binding assay, displacement of [3H]-CP-55940, membranes of CHO cells
# conditions: Ki value at CB2, competition binding, no added NaCl
parameter.measured: pKi
Please express pKi as -log10 of the molar concentration.

Which pKi value is on record for N=C(N)NC(=O)c1nc(Cl)c(N)nc1N [amiloride] ?
3.31
